# Test system: L6 cells (rat skeletal myoblast cells)
# Method Notes: Cytotoxicity on rat L6 myoblasts
# Type: cell-based
# Assay Context: Rattus norvegicus, L6, read-out: In vitro assays, EC50 L6 cells (Tox)
Assay Endpoint: EC50 (nM)
Report the figure in nM without appending any unit label.

State the recorded EC50 for this entry: COc1cc([C@@H]2c3cc4c(cc3[C@H](O)[C@H]3COC(=O)[C@H]23)OCO4)cc(OC)c1OC [podophyllotoxin, reference compound]
12

====

# Assay System: recombinant PfdUTPase (Plasmodium falciparum, UniProt Q8II92)
# Sequence (Q8II92 1-173): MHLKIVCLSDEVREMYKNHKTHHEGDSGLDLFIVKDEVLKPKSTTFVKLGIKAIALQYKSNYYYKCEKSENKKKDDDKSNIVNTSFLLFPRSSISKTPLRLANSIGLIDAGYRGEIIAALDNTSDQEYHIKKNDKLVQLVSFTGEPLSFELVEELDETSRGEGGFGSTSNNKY
# Method Notes: PfdUTPase enzyme inhibition assay (dUTP hydrolysis, Ki)
# Assay Context: recombinant PfdUTPase, 50 μM dUTP, pH 8; read-out: Enzyme assay, Ki P.fal
pKi: −log10 of the molar value.
Binary call on pKi: 1 from 5 upward, 0 beneath that.

Answered cases to consult:
O=C(NCCCO)C(c1ccccc1)c1ccccc1 [Compound 3] = 0
O=C(NCCCn1ccc(=O)[nH]c1=O)C(c1ccccc1)(c1ccccc1)c1ccccc1 [Compound 8, 1-(3-(Triphenylacetylamino)propyl)uracil] = 1
O=C(O)CCCn1ccc(=O)[nH]c1=O [Compound 10, 1-(Carboxypropyl)uracil] = 0
O=C(CCCn1ccc(=O)[nH]c1=O)NC(c1ccccc1)c1ccccc1 [Compound 11] = 1

For this compound, is measured pKi 5 or higher? O=C(c1ccccc1)n1c(=O)ccn(CCCNC(=O)C(c2ccccc2)(c2ccccc2)c2ccccc2)c1=O [Compound 6]
0

For this compound, is measured pKi 5 or higher? O=C(NCCCO)C(c1ccccc1)(c1ccccc1)c1ccccc1 [Compound 4]
0

For this compound, is measured pKi 5 or higher? O=C(CCCn1ccc(=O)[nH]c1=O)NC(c1ccccc1)(c1ccccc1)c1ccccc1 [Compound 12, 1-[3-(Tritylaminocarbonyl)propyl]uracil]
1

====

# Assay System: human dUTPase (HsdUTPase) (Homo sapiens)
# Construct: made in house; host or cells: E. coli BL21 (DE3)
# Sequence (P33316 112-252 limits assumed): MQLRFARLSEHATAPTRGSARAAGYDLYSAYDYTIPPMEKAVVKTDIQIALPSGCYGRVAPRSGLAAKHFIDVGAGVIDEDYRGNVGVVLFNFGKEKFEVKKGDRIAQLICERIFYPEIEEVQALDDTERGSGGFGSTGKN
# Method Notes: Human dUTPase enzyme inhibition assay (dUTP hydrolysis, Ki)
# Type: biochemical
# Assay Context: recombinant human dUTPase; read-out: Enzyme assay, Ki H. sap.
Assay Endpoint: pKi
pKi is a log-scale quantity: -log10 of the concentration expressed in molar.

State the recorded pKi for this entry: O=C(NCCCn1ccc(=O)[nH]c1=O)C(c1ccccc1)c1ccccc1
3.54

====

Form field: Cell selectivity index (SI) [EC50 L6/EC50 P. falciparum] (one value per entry).
# Tested on: L6 cells (rat skeletal myoblast cells)
# Method Notes: Cytotoxicity on rat L6 myoblasts
# Assay type: cell-based
The reply should be a number, written without any unit.

O=C(O)CCCn1ccc(=O)[nH]c1=O = 0.7
O=C(c1ccccc1)n1c(=O)ccn(CCCNC(=O)C(c2ccccc2)(c2ccccc2)c2ccccc2)c1=O = 1.4
O=C(NCCCO)C(c1ccccc1)c1ccccc1 = 1.0
O=C(NCCCn1ccc(=O)[nH]c1=O)C(c1ccccc1)c1ccccc1 = 1.3

Note: attention shifts to another entry.
State the recorded Cell selectivity index (SI) [EC50 L6/EC50 P. falciparum] for this entry: O=C(NCCCO)C(c1ccccc1)(c1ccccc1)c1ccccc1
1.9
